# Method description: Cmax in C57BL/6J mouse at 10 mg/kg, po after 0.25 to 24 hrs by LC-MS/MS method
# Format: ADME, organism-based
# Parameters: dose 10 mg/kg, route oral
# Run conditions: in vivo
Property label: Cmax (nM)

[a] CC(C)(C)c1ccccc1NC(=O)C(=O)N1CCC(C(=O)N[C@@H](CC(=O)O)C(=O)COc2c(F)c(F)cc(F)c2F)CC1
[b] O=C(O)C[C@H](NC(=O)C1CCN(C(=O)C2CCCC2)CC1)C(=O)COc1c(F)c(F)cc(F)c1F
[c] C[C@H](NC(=O)C(=O)Nc1ccccc1C(C)(C)C)C(=O)N[C@@H](CC(=O)O)C(=O)COc1c(F)c(F)cc(F)c1F
Qu. Form: Sort by [Cmax] Order [ ascending ] Submit the labels in the order that the ranking request calls for.
Ans. c, b, a
(c: 227 nM, b: 405 nM, a: 1640 nM)

----------
# Method description: Stability in rat plasma assessed as compound remaining level at 100 uM incubated for 2 hrs by LC-MS/MS method
# Type: ADME, cell-free
# Run conditions: read-out: Stability
Property label: remaining at 2 h, 100 µM (%)

| Smi | remaining at 2 h, 100 µM, % |
| --- | --- |
| CC(C)(C)c1ccccc1NC(=O)C(=O)N1CCC(C(=O)N[C@@H](CC(=O)O)C(=O)COc2c(F)c(F)cc(F)c2F)CC1 | 93 |
| CC(C)(C)c1ccccc1NC(=O)C(=O)N1CCC[C@@H](C(=O)N[C@@H](CC(=O)O)C(=O)COc2c(F)c(F)cc(F)c2F)C1 | 67 |

----------
# Method description: AUC (0 to infinity) in C57BL/6J mouse at 10 mg/kg, po after 0.25 to 24 hrs by LC-MS/MS method
# Type: ADME, organism-based
# Set-up: dose 10 mg/kg, time infinity, route oral
# Run conditions: C57BL/6J, in vivo
Property label: AUC(0-inf) (µM·h)
Numbers only here, please. The scale is µM·h.

Qu. Value lookup for AUC(0-inf); key = `CC(C)(C)c1ccccc1NC(=O)C(=O)N1CCC(C(=O)N[C@@H](CC(=O)O)C(=O)COc2c(F)c(F)cc(F)c2F)CC1`
Ans. 3.66

----------
# Tested target: Caspase-3 (Homo sapiens, UniProt P42574)
# Sequence (P42574 29-175 limits assumed): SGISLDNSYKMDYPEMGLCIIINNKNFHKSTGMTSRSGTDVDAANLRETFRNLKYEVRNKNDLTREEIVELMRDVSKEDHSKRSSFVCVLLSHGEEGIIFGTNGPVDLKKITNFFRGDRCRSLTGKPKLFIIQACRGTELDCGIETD
# Sequence (P42574 176-277 limits assumed): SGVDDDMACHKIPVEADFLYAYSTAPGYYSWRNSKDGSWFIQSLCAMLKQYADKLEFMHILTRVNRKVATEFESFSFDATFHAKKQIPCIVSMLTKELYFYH
# Method description: Inhibition of Anti-Fas antibody-induced caspase-3 activity in human Jurkat E6-1 cells using Ac-DEVD-AMC substrate by fluorescence based assay
Property label: IC50 (nM)
Kindly answer with a numeric value in nM, unit omitted.

Qu. Param item = C[C@H](NC(=O)C(=O)Nc1ccccc1C(C)(C)C)C(=O)N[C@@H](CC(=O)O)C(=O)COc1c(F)c(F)cc(F)c1F [EMRICASAN] ; retrieve measured IC50.
Ans. 6

----------
# Test system: Mus musculus
# Method description: AUC (0 to infinity) in C57BL/6J mouse at 10 mg/kg, po after 0.25 to 24 hrs by LC-MS/MS method
# Type: ADME, organism-based
# Parameters: dose 10 mg/kg, time infinity, route oral
# Run conditions: in vivo
Property label: AUC (µM·h)

[I] C[C@H](NC(=O)C(=O)Nc1ccccc1C(C)(C)C)C(=O)N[C@@H](CC(=O)O)C(=O)COc1c(F)c(F)cc(F)c1F
[II] O=C(O)C[C@H](NC(=O)C1CCN(C(=O)C2CCCC2)CC1)C(=O)COc1c(F)c(F)cc(F)c1F
Qu. Please state the entry with greater AUC among I and II . # answer = label of selected item
Ans. II
